# TARGET_UNDER_TEST: dengue type 4 virus (DENV-4), strain 814669, virions (dengue type 4 virus, UniProt P09866 280-774; P09866 114-279)
# ASSAY_COMMENT: ELISA, virion-coated plate, Fab from ~140 µg/ml
Collected ELISA titer of Fab binding values appear next to each entry.

[
  {
    "BINDER": "chimpanzee Fab 1A10 (Fab, V domains shown) VH: VQLLEESGAEVKKPGSSVKVSCKVSGGTFSRNPISWVRQAPGQGLEWMGVIVPIVGTTKHAQKFQGRVTIIADESTSTAYMELSSLRSEDTAVYYCATYYADGSSYSEYWGQGTLVTVSS VL: ELQMTQSPLSLSVAPGQPASISCKSSQSLLHSDGNTYLFWYLQKSGQSPQLLIYGLSNRASGVPDRFSGSGSGTDFTLKISQVEAEDVGVFYCMQGTQLPYTFGQGTKLEIKR",
    "RESULT": "3.8 log10 of reciprocal dilution"
  }
]

Attention now shifts to the item below.
Tell me the measured ELISA titer of Fab binding of chimpanzee Fab 3E4 (Fab, V domains shown) VH: VQLLEQSGAEVKKPGGSVKVSCKVSGGTFSRNPISWVRQAPGQGLEWMSVIVPIVGTTKHAQKFQGRVTITADESTSTAYMELSSLRSEDTAVYYCATYRRYADVSSYSEYWGQGTLVTVSS VL: ELTQSPLSLPVTLGQPASISCRSSQNLVHSDGNTYLSWIQQRPGQPPRLLIYKVSNRDSGVPDRFSGSGAGTDFTLKITRVEAEDVGLYYCVQGVQFPITFGQGTKLEIKR , please.
3.8 log10 of reciprocal dilution

These data points were gathered from patent US20070134256A1.
